assay: Conversion of Compound B to Compound A in the dog (IV infusion and oral gavage, crossover); format: in vivo, male beagle dogs; details: male, beagle, fasted, oral gavage of Compound B 5 mg/kg, plasma
measure: Cmax

Q: Param item = [O-][N+]12CCC(CC1)[C@]1(CN=C(Nc3cc4ccccc4cn3)O1)C2 [Compound B] ; retrieve measured Cmax.
Result: 850 nM

---

Please respond with reported concentration at 0.25 h for every item in the list.
test: Conversion of Compound B to Compound A in the rat (intra-duodenal infusion, portal vein sampling); assay type: in vivo, male Sprague-Dawley rats; conditions: male, Sprague-Dawley, in vivo, intra-duodenal infusion of Compound B 10 mg/kg, analyte as labelled, 0.25 hours, read-out: Plasma concentration in the portal vein
A number alone suffices; assume nM.

Q: Param item = [O-][N+]12CCC(CC1)[C@]1(CN=C(Nc3cc4ccccc4cn3)O1)C2 ; retrieve measured concentration at 0.25 h.
Result: 758

Q: Param item = c1ccc2cc(NC3=NC[C@@]4(CN5CCC4CC5)O3)ncc2c1 ; retrieve measured concentration at 0.25 h.
Result: 7
